Values compiled from PubChem BioAssay.

List of inhibition values.
target: Pantothenate synthetase (Mycobacterium tuberculosis (strain ATCC 25618 / H37Rv)) (UniProt P9WIL5); experiment: Coupled enzyme confirmation of inhibitors against recombinant Mtb PanC (AID 375); conditions: coupled enzyme assay; at 10 µM, stronger effect = higher value;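 note: 0% = full reaction with vehicle and 100% = no enzyme background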
Sequence (P9WIL5 whole entry, looked up): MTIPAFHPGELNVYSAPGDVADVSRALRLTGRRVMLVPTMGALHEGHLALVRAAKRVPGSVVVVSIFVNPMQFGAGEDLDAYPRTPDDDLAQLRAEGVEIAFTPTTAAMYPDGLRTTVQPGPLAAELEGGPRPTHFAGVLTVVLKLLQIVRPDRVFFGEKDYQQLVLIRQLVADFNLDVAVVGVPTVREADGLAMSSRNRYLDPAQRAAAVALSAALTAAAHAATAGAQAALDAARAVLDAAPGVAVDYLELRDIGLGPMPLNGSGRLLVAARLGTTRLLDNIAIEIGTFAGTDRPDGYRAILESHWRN
Use % as the unit, but write only the number.

Problem: Fill in the blank: the reported inhibition of CCCCOc1ccc(S(=O)(=O)n2c(C)nc3ccccc32)cc1 is ____.
Result: 0

Others:
Problem: Fill in the blank: the reported inhibition of O=C(OCC#CCSc1nc2ccccc2o1)c1ccco1 is ____.
Result: 0

Problem: Fill in the blank: the reported inhibition of O=C(Nc1ccccc1)N1C(=O)C2(OCCO2)c2ccccc21 is ____.
Result: 0

###

biological target: Pantothenate synthetase (Mycobacterium tuberculosis (strain ATCC 25618 / H37Rv)); experiment: Coupled enzyme confirmation of inhibitors against recombinant Mtb PanC (AID 375); conditions: coupled enzyme assay; at 10 µM, stronger effect = higher value;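 note: 0% = full reaction with vehicle and 100% = no enzyme background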
MEASUREMENT_LABEL: inhibition (%)
Use % as the unit, but write only the number.

Solved cases (10 shown):
Problem: Fill in the blank: the reported inhibition of CN(C)S(=O)(=O)N1CCN(C(=O)N(c2ccccc2)c2ccccc2)CC1 is ____.
Result: 0

Problem: Fill in the blank: the reported inhibition of Cc1ccc(-n2nnnc2SCC(=O)N2CCN(C(=O)c3ccco3)CC2)c(C)c1 is ____.
Result: 0

Problem: Fill in the blank: the reported inhibition of Fc1ccc(-c2cnc[nH]2)cc1 is ____.
Result: 0

Problem: Fill in the blank: the reported inhibition of COc1ccc(-c2cn3cc(C)ccc3n2)cc1OC is ____.
Result: 8

Problem: Fill in the blank: the reported inhibition of COc1ccccc1C(=O)Nc1ccc(N2CCN(S(C)(=O)=O)CC2)cc1 is ____.
Result: 0

Problem: Fill in the blank: the reported inhibition of Cc1cccc(C)c1NC(=O)CS(=O)CC(=O)NC1CCCc2ccccc21 (stereo not given) is ____.
Result: 12

Problem: Fill in the blank: the reported inhibition of O=C(Nc1nnc(SCC(=O)N2CCCCC2)s1)C1CCCCC1 is ____.
Result: 5

Problem: Fill in the blank: the reported inhibition of C[C@]12CCC(=O)C=C1CC[C@@H]1[C@@H]2CC[C@]2(C)C(=O)CC[C@@H]12 is ____.
Result: 0

Problem: Fill in the blank: the reported inhibition of CC(C)C(NC(=O)c1ccco1)C(=O)NCC(c1ccco1)N1CCCCC1 (stereo not given) is ____.
Result: 3

Problem: Fill in the blank: the reported inhibition of CN1CCN(c2nc3ccccc3c(=O)n2-c2ccccc2)CC1 is ____.
Result: 0

Consider the additional compound presented here.
Problem: Fill in the blank: the reported inhibition of Nc1nc2ccc(OC(F)(F)F)cc2s1 is ____.
Result: 7

###

molecular target: Pantothenate synthetase (Mycobacterium tuberculosis (strain ATCC 25618 / H37Rv)); test: Coupled enzyme confirmation of inhibitors against recombinant Mtb PanC (AID 375); details: coupled enzyme assay; at 10 µM, stronger effect = higher value;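 note: 0% = full reaction with vehicle and 100% = no enzyme background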
List of inhibition values.
Use % as the unit, but write only the number.

Solved cases (6 shown):
Problem: Fill in the blank: the reported inhibition of CC(C)Cn1c(-c2ccc(F)cc2)n[nH]c1=S is ____.
Result: 0

Problem: Fill in the blank: the reported inhibition of COC(=O)Cn1c(C)nc2c(sc3nc(C)cc(C)c32)c1=O is ____.
Result: 3

Problem: Fill in the blank: the reported inhibition of C[C@H](NC(=O)OC(C)(C)C)C(=O)NCC1CCC(C(=O)O)CC1 (stereo not given in full) is ____.
Result: 0

Problem: Fill in the blank: the reported inhibition of O=C(NCc1nnc(SCC(=O)N2CCC(Cc3ccccc3)CC2)o1)c1ccccc1F is ____.
Result: 0

Problem: Fill in the blank: the reported inhibition of c1ccc(-n2nnnc2OCCOc2nnnn2-c2ccccc2)cc1 is ____.
Result: 3

Problem: Fill in the blank: the reported inhibition of CC(=O)Nc1ccc(S(=O)(=O)NCC2CCC(C(=O)NCCCN3CCCC3=O)CC2)cc1 (stereo not given) is ____.
Result: 0

Others:
Problem: Fill in the blank: the reported inhibition of CCCCCCCC(=O)OCC(=O)[C@@]1(O)CC[C@H]2[C@@H]3CCC4=CC(=O)CC[C@]4(C)[C@H]3[C@@H](O)C[C@@]21C is ____.
Result: 1

Problem: Fill in the blank: the reported inhibition of CCOC(=O)c1[nH]c2ccc(C)cc2c1NC(=O)CN1CCCCC1 is ____.
Result: 3

###

target: Pantothenate synthetase (Mycobacterium tuberculosis (strain ATCC 25618 / H37Rv)); assay: Coupled enzyme confirmation of inhibitors against recombinant Mtb PanC (AID 375); settings: coupled enzyme assay; at 10 µM, stronger effect = higher value;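 note: 0% = full reaction with vehicle and 100% = no enzyme background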
List of inhibition values.
Use % as the unit, but write only the number.

Problem: Fill in the blank: the reported inhibition of COC(=O)COc1nc(C)c(Br)c(OC)n1 is ____.
Result: 0

Others:
Problem: Fill in the blank: the reported inhibition of O=C(Cc1c(F)cccc1Cl)Nc1ccncc1 is ____.
Result: 6

Problem: Fill in the blank: the reported inhibition of COc1ccc(C2C(C(=O)c3sc(C)nc3C)=C(O)C(=O)N2CCN2CCOCC2)cc1 (configuration not stated) is ____.
Result: 0

Problem: Fill in the blank: the reported inhibition of CCCC(=O)Nc1ccc2oc(-c3cccnc3)nc2c1 is ____.
Result: 0

Problem: Fill in the blank: the reported inhibition of O=C1CC(c2ccccc2)CC(O)=C1C=NCCN1CCOCC1 (configuration not stated) is ____.
Result: 5

Problem: Fill in the blank: the reported inhibition of CN(C)S(=O)(=O)N1CCN(S(=O)(=O)c2ccc(F)cc2)CC1 is ____.
Result: 0

Problem: Fill in the blank: the reported inhibition of Cc1nc(N)[nH]c(=O)c1CCC(=O)OCC(C)C is ____.
Result: 0

Problem: Fill in the blank: the reported inhibition of c1ccc(CN2CCN(c3ncnc4c3[nH]c3ccccc34)CC2)cc1 is ____.
Result: 5

Problem: Fill in the blank: the reported inhibition of CC(C)(C)n1nnnc1CN1CCN(C2CCCC2)CC1 is ____.
Result: 3

Problem: Fill in the blank: the reported inhibition of O=C(Nc1cccnc1N1CCOCC1)c1ccco1 is ____.
Result: 10

Problem: Fill in the blank: the reported inhibition of CCOC(=O)c1sc(N2C(=O)C(O)=C(C(=O)c3ccco3)C2c2ccccc2)nc1C (configuration not stated) is ____.
Result: 0

Problem: Fill in the blank: the reported inhibition of Nc1nc(N2CCN(C/C=C/c3ccccc3)CC2)nc2ccccc12 is ____.
Result: 7

###

List of inhibition values.
biological target: Pantothenate synthetase (Mycobacterium tuberculosis (strain ATCC 25618 / H37Rv)); assay: Coupled enzyme confirmation of inhibitors against recombinant Mtb PanC (AID 375); settings: coupled enzyme assay; at 10 µM, stronger effect = higher value;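 note: 0% = full reaction with vehicle and 100% = no enzyme background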
Activity calls are given as the source filed them. How the calls were made is not given here.

Solved cases (3 shown):
Problem: Fill in the blank: the reported inhibition of CCOCCCNC(=O)c1cc2sc(Cl)cc2n1CC is ____.
Result: 0% (inactive)

Problem: Fill in the blank: the reported inhibition of CCN(CC)CCCn1c(=S)[nH]c2cc(Cl)ccc2c1=O is ____.
Result: 0% (inactive)

Problem: Fill in the blank: the reported inhibition of COC(=O)c1[nH]c2ccc(C)cc2c1NC(=O)CN1CCC(C)CC1 is ____.
Result: 0% (inactive)

Others:
Problem: Fill in the blank: the reported inhibition of O=C(NC(=O)c1ccc(Cl)cc1)Nc1cc(N2CCCCC2)ncn1 is ____.
Result: 0% (inactive)

Problem: Fill in the blank: the reported inhibition of O=C(O)CCCC(=O)Nc1nc(-c2ccc(F)cc2)cs1 is ____.
Result: 0% (inactive)

Problem: Fill in the blank: the reported inhibition of CC(C)(C)C(=O)NC1CCN(C(=O)N2CCCC2)CC1 is ____.
Result: 6% (inactive)

###

experiment: growth suppression of yeast trafficking mutant, preliminary HTS, modulators of trafficking downstream of Golgi apparatus project, 1536-format plate, OD 615 nm (AID 637); details: yeast transport mutant growth, absorbance 615 nm, 18 h; stronger effect = higher value
MEASUREMENT_LABEL: inhibition (%)
Use % as the unit, but write only the number.

Problem: Fill in the blank: the reported inhibition of COc1ccc(CCn2c(O)c(C=NCCCN(C)C)c(=O)[nH]c2=O)cc1OC is ____.
Result: -1.59

Others:
Problem: Fill in the blank: the reported inhibition of CCOc1c(P(=S)(N(C)C)N(C)C)c(C)nn1-c1ccccc1 is ____.
Result: -11

Problem: Fill in the blank: the reported inhibition of O=C(c1ccncc1)C12CN3CN(CN(C3)C1)C2 is ____.
Result: -2.5

Problem: Fill in the blank: the reported inhibition of OC(CNC1CCCCC1)c1ccccc1 (stereo unspecified) is ____.
Result: -2.55

Problem: Fill in the blank: the reported inhibition of CC1(C)C(c2ccccc2)=NC(c2cccnc2)N1O (stereo unspecified) is ____.
Result: 5.74

Problem: Fill in the blank: the reported inhibition of CCOP(=S)(OCC)c1ccc(N(C)C)cc1 is ____.
Result: -12.1
